Tested on: RSV
Assay: viral titer
Type: cell-based, human respiratory syncytial virus
Conditions: human respiratory syncytial virus, read-out: viral titer reduction at 10 µM
API: label(entry) gives Fulfilled if the entry's log reduction at 10 µM is strictly smaller than 4; on equality or larger values it gives Not fulfilled.

Solved cases (7 shown):
CC(C)(C)c1ccc(Cn2c(=O)n(Cc3ccc(C(=O)NCC4COC4)cc3)c(=O)c3ccccc32)cc1: Fulfilled
COCCCNC(=O)c1ccc(Cn2c(=O)c3ccccc3n(Cc3ccc(C)cc3)c2=O)cc1: Not fulfilled
COCCCNC(=O)c1ccc(Cn2c(=O)c3ccccc3n(Cc3cccnc3)c2=O)cc1: Fulfilled
CCc1ccc(Cn2c(=O)n(Cc3ccc(C(=O)NCCCOC)cc3)c(=O)c3ccccc32)cc1: Not fulfilled
COCCCNC(=O)c1ccc(Cn2c(=O)c3ccccc3n(Cc3ccccn3)c2=O)cc1: Fulfilled
COCCCNC(=O)c1ccc(Cn2c(=O)c3ccccc3n(Cc3ccc4nonc4c3)c2=O)cc1: Fulfilled
COCCCNC(=O)c1ccc(Cn2c(=O)c3ccccc3n(Cc3ccc(C#N)cc3)c2=O)cc1: Not fulfilled

Ask | Please let me know if "Cc1ccc(Cn2c(=O)n(Cc3ccc(C(=O)NC(C)(C)C)cc3)c(=O)c3ccccc32)cc1" shows log reduction at 10 µM below 4.
Reply | Not fulfilled

* * *

Test system: Fa2N-4 immortalized human hepatocytes
Conditions: read-out: hepatocyte toxicity LC50
Measure: CC50

Ask | Request the reported CC50 associated with "CN(C)c1ccc(Cn2c(=O)n(Cc3ccc(C(=O)NCC4COC4)cc3)c(=O)c3ccccc32)cc1"
Reply | > 50 µM
